# Pre-emergence herbicidal effect AVEFA per entry
tested on: Avena fatua; test: Pre-emergence herbicidal effect; assay type: in vivo; settings: Dosage 320 g/ha, visual scoring after 3 weeks vs untreated controls, 100% = plants have died
Metric name: Pre-emergence herbicidal effect AVEFA (%)

| Structure smiles | Metric name | Assay value |
| --- | --- | --- |
| CCc1nc(N[C@H]2c3cc(C)ccc3C[C@@H]2C)nc(N)c1C#N | Pre-emergence herbicidal effect AVEFA | 90 |
| CC[C@H]1Cc2ccc(C)cc2[C@@H]1Nc1nc(C)c(C#N)c(N)n1 | Pre-emergence herbicidal effect AVEFA | 80 |
| Cc1ccc2c(c1)[C@H](Nc1nc(N)c(C#N)c(C3(c4ccc(Cl)cc4Cl)CC3)n1)[C@@H](C)C2 | Pre-emergence herbicidal effect AVEFA | 80 |
| Cc1nc(N[C@@H]2CCCc3ccccc32)nc(N)c1C#N | Pre-emergence herbicidal effect AVEFA | 90 |
| CCc1nc(N[C@@H]2CCCc3ccccc32)nc(N)c1C#N | Pre-emergence herbicidal effect AVEFA | 80 |
| Cc1ccc2c(c1)[C@H](Nc1ncc(C#N)c(N)n1)[C@@H](C)C2 | Pre-emergence herbicidal effect AVEFA | 100 |
| Cc1ccc2c(c1)[C@H](Nc1ncc(F)c(N)n1)[C@@H](C)C2 | Pre-emergence herbicidal effect AVEFA | 100 |
| CC[C@H]1Cc2ccccc2[C@@H]1Nc1ncc(C#N)c(N)n1 | Pre-emergence herbicidal effect AVEFA | 90 |
| N#Cc1cnc(N[C@@H]2CCCc3ccccc32)nc1N | Pre-emergence herbicidal effect AVEFA | 100 |
| Cc1ccc2c(c1)[C@H](Nc1ncc(Br)c(N)n1)[C@@H](C)C2 | Pre-emergence herbicidal effect AVEFA | 80 |
| Cc1ccc2c(c1)[C@H](Nc1nc(N)cc(Cl)n1)[C@@H](C)C2 | Pre-emergence herbicidal effect AVEFA | 90 |
| Cc1ccc2c(c1)[C@H](Nc1nc(C)c(C#N)c(N)n1)[C@@H](C)C2 | Pre-emergence herbicidal effect AVEFA | 90 |
| Cc1ccc2c(c1)[C@H](Nc1ncc(Cl)c(N)n1)[C@@H](C)C2 | Pre-emergence herbicidal effect AVEFA | 80 |
| Cc1nc(N[C@@H]2CCOc3c(F)cccc32)nc(N)c1C#N | Pre-emergence herbicidal effect AVEFA | 90 |
| Cc1ccc2c(c1)[C@H](Nc1nc(C)c(I)c(N)n1)[C@@H](C)C2 | Pre-emergence herbicidal effect AVEFA | 80 |
| Cc1ccc2c(c1)[C@H](Nc1nc(C)c([N+](=O)[O-])c(N)n1)[C@@H](C)C2 | Pre-emergence herbicidal effect AVEFA | 80 |

----------
system: Alopecurus myosuroides; assay: Pre-emergence herbicidal effect; type: in vivo; details: Dosage 320 g/ha, visual scoring after 3 weeks vs untreated controls, 100% = plants have died
# Pre-emergence herbicidal effect ALOMY per entry

| Structure smiles | Target or system | Pre-emergence herbicidal effect ALOMY / % |
| --- | --- | --- |
| Nc1nc(N[C@@H]2CCCc3ccccc32)ncc1Cl | Alopecurus myosuroides | 100 |
| Cc1ccc2c(c1)[C@H](Nc1nc(N)cc(Cl)n1)[C@@H](C)C2 | Alopecurus myosuroides | 100 |
| Nc1nc(N[C@@H]2CCCc3ccccc32)ncc1Br | Alopecurus myosuroides | 80 |
